# Measured target: Sortase A (Staphylococcus aureus, UniProt Q9S446, N24DEL)
# Procedure summary: Inhibition of Staphylococcus aureus sortase A N24 deletion mutant using Abz-LPATG-Dnp as substrate preincubated for 20 mins followed by substrate addition by FRET assay
Overview of reported pIC50 across a group of molecules:
In simple prose, pIC50 is minus the logarithm base ten of a concentration in moles per litre.

Inquiry: Find the measured pIC50 of `O=C(CNC(=O)OCc1ccccc1)NCC(=O)Oc1ccc(/C=C/C=C2C(=O)NC(=O)NC2=O)cc1` with Sortase A (Staphylococcus aureus, UniProt Q9S446, N24DEL) as test system.
Reply text: 5.77

Inquiry: Find the measured pIC50 of `O=C1NC(=O)C(=C/C=C/c2ccc(OCc3ccccc3)cc2)C(=O)N1` with Sortase A (Staphylococcus aureus, UniProt Q9S446, N24DEL) as test system.
Reply text: 6.30

Inquiry: Find the measured pIC50 of `O=C1NC(=O)C(=C/C=C/c2ccc(OCC(=O)c3ccc[nH]3)cc2)C(=O)N1` with Sortase A (Staphylococcus aureus, UniProt Q9S446, N24DEL) as test system.
Reply text: 6.30

Inquiry: Find the measured pIC50 of `CSCC[C@H](NC(=O)OCc1ccccc1)C(=O)Oc1ccc(/C=C/C=C2C(=O)NC(=O)NC2=O)cc1` with Sortase A (Staphylococcus aureus, UniProt Q9S446, N24DEL) as test system.
Reply text: 5.16

Inquiry: Find the measured pIC50 of `CC(=O)Oc1ccc(/C=C/C=C2C(=O)NC(=O)NC2=O)cc1` with Sortase A (Staphylococcus aureus, UniProt Q9S446, N24DEL) as test system.
Reply text: 5.74

* * *

Overview of reported IC50 across a group of compounds:
# Measured target: Sortase A (Staphylococcus aureus, UniProt Q9S446, N24DEL)
# Procedure summary: Inhibition of Staphylococcus aureus sortase A N24 deletion mutant using Abz-LPATG-Dnp as substrate preincubated for 20 mins followed by substrate addition by FRET assay

Known IC50 results, listed for orientation:
Smi	Reported
O=C1NC(=O)C(=Cc2ccc(-c3ccc(Br)cc3)o2)C(=O)N1	> 50 µM
CC(C)CC=C1C(=O)NC(=O)NC1=O	> 50 µM
O=C1NC(=O)C(=C/C=C/c2ccccc2Cl)C(=O)N1	2.1 µM
O=C1NC(=O)C(=C/C=C/c2ccc(F)cc2)C(=O)N1	1.3 µM

Inquiry: For `O=C1NC(=O)C(=C/C=C/c2ccc(OC(=O)CNC(=O)OCc3ccccc3)cc2)C(=O)N1` , write its IC50.
Reply text: 1.8 µM

Inquiry: For `O=C1NC(=O)C(=C/C=C/c2ccc(Br)cc2)C(=O)N1` , write its IC50.
Reply text: 0.7 µM

Inquiry: For `O=C1NC(=O)C(=C/C=C/c2cc(Cl)cc(Cl)c2)C(=O)N1` , write its IC50.
Reply text: 2 µM

Inquiry: For `COC(=O)c1ccc(COc2ccc(/C=C/C=C3C(=O)NC(=O)NC3=O)cc2)cc1` , write its IC50.
Reply text: > 50 µM

Inquiry: For `O=C1NC(=O)C(=C/C=C/c2ccc(OCC(=O)c3ccco3)cc2)C(=O)N1` , write its IC50.
Reply text: 0.8 µM
